system: RARa:RXR (NR concentration 270 nM, RXRa partner concentration 90 nM); test: PBM binding z-score (relative to random genomic background probes); higher = stronger binding; sequences stand for … in GC…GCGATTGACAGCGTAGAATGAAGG
endpoint label: PBM binding z-score
Numbers only.

Take a look at these entries with their results.
1. GCTCGGTGGACAAGGTCAGAGCTTTGTCCGTAGA; 2.25
2. AGAACGAGGGCACGCTGGGTTGATAGCAGAGTAG; 1.17
3. ACTAGCAGGCCAAGGGTCACTCACGATTAGTCCG; 3.55
4. TCTGCTAGGTCAACGATGTTCAGCTAATCTGCTA; 2
5. CATGCTAGGTCATGGTCAGCTAATCTACAGTATG; 2.58

Now consider a different sequence.
[Q] Item AATACAGGGTCACTAGGCCAGAGTAGGTACGAAT has what recorded PBM binding z-score?
[A] 4.51

====

test system: RARb:RXRa (NR concentration 270 nM, RXRa partner concentration 90 nM); assay: PBM binding z-score (relative to random genomic background probes); higher = stronger binding; sequences stand for … in GC…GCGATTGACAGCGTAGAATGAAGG
Outcome label depends on PBM binding z-score relative to 3: at/above gives fulfilled, below gives not fulfilled.

Record excerpt, results attached:
1) ACAGACAGGTGAGTGAAGCTAACTCAGCTGGACG; not fulfilled
2) CCGACTGGAGCATAAGGTTACCATAAGCCAGCCC; not fulfilled
3) ATATGCAGGTTAGCTGGGGTCATTCAGACTAGGC; fulfilled
4) CCTATTAGTTGACTATAAGGGCAACCGAAGCTCG; not fulfilled
5) CCTACTGGGCCATTCAGAGGTCATTTATCATATG; not fulfilled

[Q] Hello, I need to know if ACAGACAGGTGATGAAGGTAACTCCGGCTATCAT has measured PBM binding z-score not below 3. Thanks!
[A] not fulfilled

[Q] Please do the same for GCTAGTTGGTCGGTAAAAGGTCACACACCGGTCG as well.
[A] fulfilled

[Q] Please do the same for CGTCCAGGGTCAAAGGTCAGTGAAGAGATGACGG as well.
[A] fulfilled

[Q] Please do the same for CGTCCAAGGTCAGCAGGTCAGTGAAAGCGACGTG as well.
[A] fulfilled

[Q] Please do the same for TAGCCGAGGTCAGATCGGGCCAGTATACGCTATA as well.
[A] fulfilled

[Q] Please do the same for CGAACTAGGTCAAGGACAATGAATCTCCGCACGC as well.
[A] fulfilled

[Q] Please do the same for ATATGTAGGTTATCGGGTCGTTCAGTTTGCGCAT as well.
[A] not fulfilled

[Q] Please do the same for CGAACGAGGGCATGAGTTGATAGGAAATGCCGAT as well.
[A] not fulfilled

====

tested on: PPARg:RXRa 90nM:30nM, anti-RXR (NR concentration 90 nM, RXRa partner concentration 30 nM); test: PBM binding z-score (relative to random genomic background probes); higher = stronger binding; sequences stand for … in GC…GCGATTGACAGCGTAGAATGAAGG
Outcome label depends on PBM binding z-score relative to 3: at/above gives true, below gives false.

1) GCATATAGGTAATACAATGTGAAAGTCCGATTGT; false

[Q] Hello, I need to know if CTACCAAGGTGAACGAGGTCGTTGATTACTATTC has measured PBM binding z-score not below 3. Thanks!
[A] false

[Q] Please do the same for CTACCAAGGTGAACAAGGTCGTTGATTACTATTC as well.
[A] false

[Q] Please do the same for CCTGACGGGTCACGAGGTTATAGCACGACGAGCG as well.
[A] true

[Q] Please do the same for AGAATGAGGTTGAGATCAGGGAAACAGAATACAT as well.
[A] false

[Q] Please do the same for AGAATGAGGATATTAAGATCAGGGAATTGCGGTC as well.
[A] false

[Q] Please do the same for TCTGCTAGGTCAACGATAGTCAGCTAATCTGCTA as well.
[A] false

[Q] Please do the same for TCTAGTTGGTCAAAGGTTACACACTCGAAATGCG as well.
[A] true

[Q] Please do the same for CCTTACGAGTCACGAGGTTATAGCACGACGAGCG as well.
[A] false

[Q] Please do the same for CGTCCAAGGTCATAGTAGGTCAGTGAAGACAGAT as well.
[A] true

[Q] Please do the same for CCTCCTAGGTCATGGTCAGCTAATCTACAGTATG as well.
[A] false

[Q] Please do the same for CAAACTAGGTCAAGAGTTCAAAGTCCGCTTCCCG as well.
[A] true

====

test system: RARa homodimer (NR concentration 270 nM); experiment: PBM binding z-score (relative to random genomic background probes); higher = stronger binding; sequences stand for … in GC…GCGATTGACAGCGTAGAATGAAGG
endpoint label: PBM binding z-score
Answers are plain numbers.

// for each sequence in input: emit PBM binding z-score
1. CGAAAGAGGGCATGAGTTGATAGCAAATGCCGAT
2. CATACTAGGTCACCGGAAGGTCAAAGTCCGCATG
3. TTAATGAGGTTATAAGATCAGGGAACGTTGCAAA
4. TCTGCTAGGTCAGTGGGTCAGCTAACGAGCTGCC
5. ACAGACAGGTGAGTGAAGGTAACTCAACTGGACG
6. TCAGATAGGTAAACAGGTGAAAGTCCGTAAGTTA

[A]
-0.0626
2.75
1.23
-0.00938
-0.165
1.15

====

Consider the following sequences; for each one, report its PBM binding z-score.
system: PXR:RXRa (NR concentration 270 nM, RXRa partner concentration 90 nM); assay: PBM binding z-score (relative to random genomic background probes); higher = stronger binding; sequences stand for … in GC…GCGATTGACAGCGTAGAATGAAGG
One number for each entry.

1) CGTCCAAGGTCAAAGGTCAGTGGAGAGATGACGG; 7.21

// for each sequence in input: emit PBM binding z-score
1. CAAACTAGGTCACGAAAGGTCAAAGTAGAATGAC
2. TAGCCTAGGTCATGGGTCAGTATACCACGCGAAC
3. CCTTACGGGTCAAGGTTAAAGCACGGGTGGTACG
4. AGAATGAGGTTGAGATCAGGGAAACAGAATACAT
5. CCTTACGGGTCACTGACAGGTTATAGAATTTGGA

[A]
6.93
2.92
3.65
0.154
3.68

// for each sequence in input: emit PBM binding z-score
1. GCTAGGAGGACAAGGTCAGAGCTTTGTCCGTAGA
2. ACTATTAGTTGAGACGAGGGCAACCGTTAGGTTG
3. CTTCAAAGTTCAACTAAGGTAACGTAAAGCACGC
4. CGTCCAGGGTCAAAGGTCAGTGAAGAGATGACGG
5. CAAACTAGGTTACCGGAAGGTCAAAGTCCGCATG

[A]
[1.57, 1.36, 5.58, 6.94, 4.47]

[Q] For the record ACTCGGAGGACAAAGATCAGAGCTACGCCAGTGA , what value of PBM binding z-score is listed for PXR:RXRa (NR concentration 270 nM, RXRa partner concentration 90 nM)?
[A] -0.522

====

tested on: THRa:RXRa (NR concentration 90 nM, RXRa partner concentration 90 nM); test: PBM binding z-score (relative to random genomic background probes); higher = stronger binding; sequences stand for … in GC…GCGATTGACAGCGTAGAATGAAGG
endpoint label: PBM binding z-score
Give bare numbers.

1) TCGGGTAGGTTAGGGGCATTCAGAATGGCGTCGA; 2.44
2) TTACCAATGTGAAAGGTCGTTGATGCACGCCTTG; 1.44
3) ATCTCTAGATAAAAGTTCAGTGAATCCCGAGGAT; 0.538
4) AGAACGAGGGCTCGCTGAGTTGATAGCAGAGTAG; -0.509
5) CCTCGGAGGACAGAAGGTCAGAGCAGTCCGCTTT; 2.67

Now consider a different sequence.
[Q] Item CCTTACGGGTCTCGAGGTTATAGCACGACGAGCG has what recorded PBM binding z-score?
[A] 1.05

====

test system: RARg:RXRa (NR concentration 270 nM, RXRa partner concentration 90 nM); assay: PBM binding z-score (relative to random genomic background probes); higher = stronger binding; sequences stand for … in GC…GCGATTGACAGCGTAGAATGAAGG
Outcome label depends on PBM binding z-score relative to 4: at/above gives Y, below gives N.

1) ATCGAAAGGTCGAAGGGGAGTATACCCACCCGAA; N
2) ACTATTAGTTGACTGAGGGCAACCGATACGACGC; N
3) ATGTGTAGGTTATCGGGTCATTCAGTTTGCGCAT; N
4) TCGAGTAGGTTACCAATGTGGCATTCAGCTTTCT; N
5) ACTATTAGTTGACTTAGGGCAACCGGTACGACGC; N
6) GCATATAGGTTATACAAGGTGAAAGTCCGATTGT; N
7) GCTATTTGGTCAGTAAAAGGTCACACACCGGTCG; Y
8) CAAATTAGGTCAAAGGTCAAAGTCGAGCCAACCA; Y

[Q] Hello, I need to know if GCGACTGGGGCAAAGCAGGATACCATAAGGTTGG has measured PBM binding z-score not below 4. Thanks!
[A] N

[Q] Please do the same for CCTTACAGGTCACTCCAGGTTATAGCATCGGAGT as well.
[A] Y
